Origin of measurements: PubChem BioAssay (NCATS)

System: AS120
test.summary: qHTS profiling for inhibitors of Plasmodium falciparum proliferation (AID 504749); note: nearly all actives have a fitted effect of over 60% in size; note: potency is the fitted concentration of half-maximal effect
assay.conditions: P. falciparum in erythrocytes, SYBR Green DNA, 72 h; series mostly up to 28.7 µM
Inconclusive results are not listed. Active and inactive are the calls of the source. Calls come from the whole dose curve; as a rule, active = well fitted inhibition curve with a large enough effect; inconclusive = small, poorly fitted or top-dose-only effect; inactive = flat fitted curve, though single readings scatter.
recorded.endpoint: Potency

• CC[C@H](NC(C)C)[C@H](O)c1ccc(O)c2[nH]c(=O)ccc12 = inactive
• COc1cc(NCc2ccc3nc(N)nc(N)c3c2C)cc(OC)c1OC = 1 µM (active)
• C#CCN[C@@H]1CCc2ccccc21 = inactive
• N[C@@H](C(=O)N[C@@H]1C(=O)N2C(C(=O)O)=C(Cl)CS[C@H]12)c1ccccc1 = inactive
• Nc1[nH]c(=O)ncc1F = inactive
• CCCCOc1ccc(CC(=O)NO)cc1 = 3.55 µM (active)
• C[C@@H](NCCCc1cccc(C(F)(F)F)c1)c1cccc2ccccc12 = 3.98 µM (active)
• COC(=O)Nc1nc2ccc(Sc3ccccc3)cc2[nH]1 = inactive
• CCCc1cc(C(N)=S)ccn1 = inactive
• COc1ccc(-c2ccc3cc(C(=O)O)ccc3c2)cc1C12CC3CC(CC(C3)C1)C2 = inactive
• CC1=NN(c2ccccc2)C(=O)C1 = inactive
• CN(Cc1cc(Br)cc(Br)c1N)C1CCCCC1 = inactive

----------
Tested on: AS120
test.summary: qHTS profiling for inhibitors of Plasmodium falciparum proliferation (AID 504749); note: nearly all actives have a fitted effect of over 60% in size
assay.conditions: P. falciparum in erythrocytes, SYBR Green DNA, 72 h; series mostly up to 28.7 µM
Procedure: NIH National Institute of Allergy and Infectious Diseases [NIAID] NIH Chemical Genomics Center [NCGC] […] Because mature erythrocytes lack DNA, only Plasmodium-derived DNA is detected. NCGC Assay Protocol Summary: The SYBR Green viability assay was adapted from a method described previously (Plouffe et al., 2008). […] The following morning, fluorescence intensity at 485(14) nm excitation and 535(25) nm emission wavelengths was measured on an EnVision (Perkin Elmer) plate reader. […]
Records with an inconclusive call do not appear. Activity calls are given as the source filed them. Calls come from the whole dose curve; as a rule, active = well fitted inhibition curve with a large enough effect; inconclusive = small, poorly fitted or top-dose-only effect; inactive = flat fitted curve, though single readings scatter.
Outcomes: active, inactive

• O=c1oc2c(O)c(O)cc3c(=O)oc4c(O)c(O)cc1c4c23 = active
• O=P(O)(O)C(O)(Cc1cccnc1)P(=O)(O)O = inactive
• O=C(O)c1cc(=O)[nH]c(=O)[nH]1 = inactive
• OC(Cn1cncn1)(Cn1cncn1)c1ccc(F)cc1F = inactive
• C1CCC(C(CC2CCCCN2)C2CCCCC2)CC1 (stereo unspecified) = active
• CN(CCOc1ccc(CC2SC(=O)NC2=O)cc1)c1ccccn1 (stereo unspecified) = inactive
• Nc1nc(N)c2nc(CNc3ccc(C(=O)NC(CCC(=O)O)C(=O)O)cc3)cnc2n1 (stereo unspecified) = inactive
• CNCC[C@H](Oc1cccc2ccccc12)c1cccs1 = active
• CC[C@H](C)C(=O)O[C@H]1C[C@@H](C)C=C2C=C[C@H](C)[C@H](CC[C@@H]3C[C@@H](O)CC(=O)O3)[C@H]21 = inactive
• CCn1cc(C(=O)O)c(=O)c2cc(F)c(N3CCNCC3)cc21 = inactive
• CC(C)OC(=O)C(C(=O)OC(C)C)=C1SC=CS1 = inactive

----------
Tested on: CP266
test.summary: qHTS profiling for inhibitors of Plasmodium falciparum proliferation (AID 504749); note: nearly all actives have a fitted effect of over 60% in size
assay.conditions: P. falciparum in erythrocytes, SYBR Green DNA, 72 h; series mostly up to 28.7 µM
Records with an inconclusive call do not appear. Active and inactive are the calls of the source. Calls follow the shape of the dose curve; as a rule, active = well fitted inhibition curve with a large enough effect; inconclusive = small, poorly fitted or top-dose-only effect; inactive = flat fitted curve, though single readings scatter.
Outcomes: active, inactive

* NC(=O)N1c2ccccc2CC(=O)c2ccccc21 | inactive
* CC(C)NCC(O)c1ccc(NS(C)(=O)=O)cc1 (stereo unspecified) | inactive
* COc1cc(NCc2ccc3nc(N)nc(N)c3c2C)cc(OC)c1OC | active
* CCn1cc(C(=O)O)c(=O)c2cc(F)c(N3CCN(C)CC3)cc21 | inactive
* CCOC(=O)[C@H](CCc1ccccc1)N[C@H]1CS[C@H](c2cccs2)CN(CC(=O)O)C1=O | inactive
* CC(C)(C#N)c1cc(Cn2cncn2)cc(C(C)(C)C#N)c1 | inactive
* C1CCC(C(CC2CCCCN2)C2CCCCC2)CC1 (stereo unspecified) | active
* O=NN(CCCl)C(=O)NC1CCCCC1 | inactive
* Oc1c(Cl)cc(Cl)c2cccnc12 | inactive
* Nc1nc(N)c2nc(CNc3ccc(C(=O)NC(CCC(=O)O)C(=O)O)cc3)cnc2n1 (stereo unspecified) | inactive
* CC(=O)Oc1ccccc1C(=O)Nc1ncc([N+](=O)[O-])s1 | inactive

----------
test.summary: qHTS drug screen for cell cycle checkpoint inhibitors in PARPi-resistant BRCA-mutant ovarian cancer cell lines. (AID 1963452)
assay.conditions: PEO1/OlaR viability, CellTiter-Glo luminescence, 96 h; active compounds read low
// assign Met if Z-AUC falls strictly below 0.6, else Not met (ties count as Not met)

• CNC1CCCN(c2c(F)cc3c(=O)c(C(=O)O)cn(C4CC4)c3c2OC)C1 (centres undefined) = Not met
• CC(N)C12CC3CC(CC(C3)C1)C2 (centres undefined) = Not met
• Cc1nnc(C(=O)NC(C)(C)c2nc(C(=O)NCc3ccc(F)cc3)c(O)c(=O)n2C)o1 = Met
• N[C@@H](Cc1ccc(O)c(O)c1)C(=O)O = Met
• Oc1c(Cl)cc(Cl)c2cccnc12 = Met
• CCC(=O)O[C@]1(C(=O)SCF)[C@H](C)C[C@H]2[C@@H]3C[C@H](F)C4=CC(=O)C=C[C@]4(C)[C@@]3(F)[C@@H](O)C[C@@]21C = Met
• CNC(=O)c1cc(Oc2ccc(NC(=O)Nc3ccc(Cl)c(C(F)(F)F)c3)cc2)ccn1 = Not met
• O=C(O)c1ccc(-n2nc(-c3ccccc3O)nc2-c2ccccc2O)cc1 = Met
• CCN(CC)CCn1c(=O)c(Cc2ccc(OC)cc2)nc2ccccc21 = Not met
• O=C(O)c1cc(=O)[nH]c(=O)[nH]1 = Met
• CC(=O)CC(c1ccccc1)c1c(O)c2ccccc2oc1=O (centres undefined) = Not met
• COC(=O)Nc1nc2ccc(S(=O)c3ccccc3)cc2[nH]1 (centres undefined) = Not met
• Nc1nc(F)nc2c1ncn2[C@@H]1O[C@H](CO)[C@@H](O)[C@@H]1O = Met
• CO[C@@H]1[C@@H](OC(N)=O)[C@@H](O)[C@H](Oc2ccc3c(O)c(NC(=O)c4ccc(O)c(CC=C(C)C)c4)c(=O)oc3c2C)OC1(C)C = Met
• CCOCC(O)COc1ccc(NC(=O)CC[S+](C)C)cc1 (centres undefined) = Not met
• NC1(c2ccc(-c3nc4ccn5c(=O)[nH]nc5c4cc3-c3ccccc3)cc2)CCC1 = Met
• COc1ncnc(NS(=O)(=O)c2ccc(N)cc2)c1OC = Not met
• Nc1nc(N)c2nc(CNc3ccc(C(=O)NC(CCC(=O)O)C(=O)O)cc3)cnc2n1 (centres undefined) = Met
• CCCc1cc(C(N)=S)ccn1 = Not met
• CCCCS(=N)(=O)CCC(N)C(=O)O (centres undefined) = Met
• CC(C)(C)NC(=O)[C@H]1CC[C@H]2[C@@H]3CC[C@H]4NC(=O)C=C[C@]4(C)[C@H]3CC[C@]12C = Not met
• CC(C)NCC(O)c1ccc(NS(C)(=O)=O)cc1 (centres undefined) = Met
• CC1=CC(=O)c2ccccc2C1=O = Not met
• COc1ccc2cc3[n+](cc2c1OC)CCc1cc2c(cc1-3)OCO2 = Not met
• CCCc1nc(C)c2c(=O)[nH]c(-c3cc(S(=O)(=O)N4CCN(CC)CC4)ccc3OCC)nn12 = Not met
• O=NN(CCCl)C(=O)NC1CCCCC1 = Met
• CC(C)C1CCC(C(=O)N[C@H](Cc2ccccc2)C(=O)O)CC1 (some centres undefined) = Not met
• CC(C)(Sc1cc(C(C)(C)C)c(O)c(C(C)(C)C)c1)Sc1cc(C(C)(C)C)c(O)c(C(C)(C)C)c1 = Not met
• CC(C)(C#N)c1cc(Cn2cncn2)cc(C(C)(C)C#N)c1 = Not met
• COc1c(N2CCNC(C)C2)c(F)cc2c(=O)c(C(=O)O)cn(C3CC3)c12 (centres undefined) = Not met
• CN(CCOc1ccc(CC2SC(=O)NC2=O)cc1)c1ccccn1 (centres undefined) = Not met
• CCCCc1oc2ccc(NS(C)(=O)=O)cc2c1C(=O)c1ccc(OCCCN(CCCC)CCCC)cc1 = Met
• CCCOc1ccc(C(=O)OCCN(CC)CC)cc1N = Not met
• COc1cc(NCc2ccc3nc(N)nc(N)c3c2C)cc(OC)c1OC = Met
• COc1ccc(-c2ccc3cc(C(=O)O)ccc3c2)cc1C12CC3CC(CC(C3)C1)C2 = Met
• NC(=O)c1cccnc1 = Not met
• COCCCOc1cc(C[C@@H](C[C@H](N)[C@@H](O)C[C@H](C(=O)NCC(C)(C)C(N)=O)C(C)C)C(C)C)ccc1OC = Not met
• Cn1c(=O)c2c(ncn2CC(O)CO)n(C)c1=O (centres undefined) = Not met
• NC(=O)c1ccc2[nH]ccc2c1 = Met
• CC1=NN(c2ccccc2)C(=O)C1 = Met
• O=P(O)(O)C(O)(Cc1cccnc1)P(=O)(O)O = Met
• COC(c1ccccc1)(c1ccccc1)[C@H](Oc1nc(C)cc(C)n1)C(=O)O = Not met
• O=C(NCC1CN(c2ccc(N3CCOCC3=O)cc2)C(=O)O1)c1ccc(Cl)s1 (centres undefined) = Met
